# TARGET UNDER TEST: EphA2, P29317
# Sequence (P29317 25-534): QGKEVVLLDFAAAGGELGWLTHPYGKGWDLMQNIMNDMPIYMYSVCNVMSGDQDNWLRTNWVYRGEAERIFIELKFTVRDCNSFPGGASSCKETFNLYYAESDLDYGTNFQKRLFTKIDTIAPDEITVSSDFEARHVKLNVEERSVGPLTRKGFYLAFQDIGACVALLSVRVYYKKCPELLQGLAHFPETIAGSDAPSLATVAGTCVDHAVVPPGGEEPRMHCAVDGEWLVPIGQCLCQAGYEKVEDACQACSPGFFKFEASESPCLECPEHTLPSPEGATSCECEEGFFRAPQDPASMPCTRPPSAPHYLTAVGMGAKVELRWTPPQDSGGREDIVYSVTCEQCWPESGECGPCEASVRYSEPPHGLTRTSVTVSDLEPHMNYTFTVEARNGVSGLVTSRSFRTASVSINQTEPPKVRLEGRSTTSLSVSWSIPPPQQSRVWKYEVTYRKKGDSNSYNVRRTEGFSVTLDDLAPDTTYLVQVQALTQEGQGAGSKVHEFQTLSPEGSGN
# MEASUREMENT DESCRIPTION: BLI
# REPORTED CONDITIONS: modification not given
pKd: −log10 of the molar value.

[
  {
    "BINDER": "QEFSPNLWGLEFKKN [xEFN_RBD4]",
    "pKd": 3.75
  }
]

Reference for the values: patent US20250042968A1
